# System: MCF7 breast
# Method: NCI tumour cell line growth inhibition, 48 h; in the data active = GI50 below about 0.43 µM; inactive = the rest
Classes to choose from: 1 = active, -1 = inactive

>>> print(df.to_string())
                                   compound  class_name
0  COc1ccc2cc(-c3c(-c4ccncc4)nc(-c4ccc(S(C)=O)cc4C)n3C)ccc2c1 (stereo unspecified)          -1
1  Fc1cc(-c2nnc3n2N=C(c2ccc(Cl)cc2Cl)CS3)c(Cl)cc1Cl          -1
2  CN(C)CCCC1(c2ccc(F)cc2)OCc2cc(-c3cncc4ccccc34)ccc21 (stereo unspecified)          -1
3  COc1ccc(C2ONC3=NCCN32)cc1 (stereo unspecified)          -1
4  CC[C@@]1(O)C(=O)OCc2c1cc1n(c2=O)Cc2cc3c(N)cccc3nc2-1           1

Read the next record carefully.
Lab log entry: "O=C(Nc1cc(S(=O)(=O)c2ccc(Cl)cc2)ccc1Cl)c1cc(I)cc(I)c1O" — outcome as called in the assay?
-1

====

# Tested on: ACHN renal
# Method: NCI tumour cell line growth inhibition, 48 h
Metric: TGI

Past entries and their recorded results:
>>> print(df.to_string())
                                   compound  recorded_measurement
0               CCOC(=O)CCCn1cc(C(=O)OC)nn1              > 100 µM
1  CCOC(=O)C[C@@]12CCCNC1(C)CCc1ccccc12 (stereo partly specified)              > 100 µM
2  COC(=O)C(NC(=O)CSc1nnc(COc2ccc(Cl)cc2)n1-c1ccccc1)C(C)C (stereo unspecified)              > 100 µM
3  C/C(=N/O)c1ccc2c(c1)C(=NO)c1cc(/C(C)=N/O)ccc1-2               20.8 µM
4  CC(C)(C)OC(=O)N1CCc2c(n(C/C=C/c3ccccc3)[nH]c2=O)C1              > 100 µM

Would you kindly look at the next entry?
Look up and state reported TGI for "O=[N+]([O-])c1ccc(NS(=O)(=O)C(F)(F)F)cc1"
> 100 µM

====

# Test system: A498 renal
# Method: NCI tumour cell line growth inhibition, 48 h
Quick list: TGI per entry.

In [3]: df
Out[3]:
                               input_smiles  metric  recorded_measurement
0  C/C(=N/NC(=O)CC(=O)N(C(=O)c1ccccc1Cl)c1ccc(C)cc1)c1cc2ccccc2oc1=O     TGI              > 100 µM
1            O=C1CC2(CCNCC2)C(=O)N1N1CCOCC1     TGI              > 100 µM

Turning now to a further compound:
Return reported TGI. Input compound: "O=C1OI(C#Cc2ccccc2)c2ccccc21"
16.4 µM

====

# Tested on: MDA-MB-231 breast
# Method: NCI tumour cell line growth inhibition, 48 h; in the data active = GI50 below about 0.43 µM; inactive = the rest
Allowed answers: active, inactive

For orientation, consider the following solved cases.
>>> df
                                   compound       assay_target  class_name
0  CC1(C)C2CCC13C(=O)C1OC3(C2)C2C(=O)c3c(O)cccc3C(=O)C12 (stereo unspecified)  MDA-MB-231 breast    inactive
1  COc1ccc2cc(-c3c(-c4ccncc4)nc(-c4ccc(S(C)=O)cc4C)n3C)ccc2c1 (stereo unspecified)  MDA-MB-231 breast    inactive
2  COc1ccc(/C=C(/C(=O)n2cnnn2)c2cc(OC)c(OC)c(OC)c2)cc1  MDA-MB-231 breast    inactive
3        COc1cc2nnn3c4ncccc4c(N=O)c3c2cc1OC  MDA-MB-231 breast    inactive

// return assay outcome for "O=C(CCN1CCCC1)Nc1ccc2c(Nc3ccccc3)c3ccccc3nc2c1"
inactive

Please state the recorded outcome for this compound: "O=C(/C=C/c1cn(-c2ccccc2)nc1-c1ccc([N+](=O)[O-])cc1)c1ccc(Cl)cc1"
inactive

Record request — test call for "Cc1ccc(-n2c3c(c4c(CN5CCOCC5)c(O)ccc42)CCc2ccccc2C3=O)cc1"
inactive

Could you check what this test reported for "O=C(Cc1ccc(/C=C/C(=O)c2ncc[nH]2)cc1)Nc1ccc(C(F)(F)F)cc1" ?
inactive

Would you mind telling me which call this test gave "Nc1ccn([C@@H]2C(F)=C(CO)[C@@H](O)[C@H]2O)c(=O)n1" ?
inactive

Hey, what did the test say about "Nc1ncnc2c1c(-c1ccc(Oc3ccccc3)cc1)nn2C[C@@H]1SSC[C@@H]1O" ?
inactive

Entry "C[C@@H]1C/C=C\C(=O)O[C@H](/C=C/C#C/C=C/C(C)(C)[C@@H](O)c2cccc(O)c2Br)[C@@H](C)/C=C/[C@H](C)C[C@H](OC(N)=O)C1" : call = ?
active

Each recorded value in this set is attributed to PubChem BioAssay (NCI).
